pIC50 overview
Molecular target: T1, TCE-7 (anti-CD3 scFv wt; anti-TROP2 F108A)
T1 construct: scFv on the Fab heavy chain
Experiment: competition ELISA, TCE on captured CD3
Where no end group is shown, it is not given here.
Schema: pIC50 number; meaning minus log10 of the concentration expressed in molar units.

1) VYCGPEFDESVGCA (cysteine pairing not given here; also: biotinylated, site not given here, mask peptide for the CD3 scFv) [Peptide-73] ... 7.22

// switching to the query binder
The value of pIC50 measured for the binder YLCGPDADETLACY (cysteine pairing not given here; also: biotinylated, site not given here, mask peptide for the CD3 scFv) [Peptide-76] turned out to be 4.76
